# Tested on: A-375
# test_details: Growth inhibition of human A375 cells after 4 days by MTT assay
# Type: functional, cell-based
# measurement_parameters: A-375, 96 h
Hi there, I'd appreciate the recorded pIC50 for every entry that follows.
Answers are plain numbers, as −log10 of the molar value.

CN1C[C@@H]2C[C@H]1CN2c1ccc(-c2ccnc3c(-c4cccc5[nH]ncc45)c(-c4ccncc4)nn23)c(F)c1F 6.97
CC(C)N1C[C@@H]2C[C@H]1CN2c1cc(F)c(-c2ccnc3c(-c4cccc5[nH]ncc45)c(-c4ccncc4)nn23)c(F)c1 7.26
CN1C[C@@H]2C[C@H]1CN2c1cc(F)c(-c2ccnc3c(-c4cccc5[nH]ncc45)c(-c4ccncc4)nn23)cc1F 7.06

Turning now to a further compound:
pIC50 in this record for Fc1cc(N2C[C@@H]3C[C@H]2CN3C2CCC2)cc(F)c1-c1ccnc2c(-c3cccc4[nH]ncc34)c(-c3ccncc3)nn12 : 7.11
